B1: CCDC6 (parent)
chain: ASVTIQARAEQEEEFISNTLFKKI

# Variants of: B1
# assay details: protein stability index of a GFP-peptide fusion (GPS, HEK-293T) (PSI 1-6); higher = more stable;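 note: lentivirally expressed fusions sorted by FACS into six bins by GFP to DsRed ratio, PSI derived from sequencing read proportions per bin multiplied by bin number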
# test conditions: c terminus: a fixed tail appended
Recorded measurements of protein stability index, one per entry
Just the number, please, no unit attached.

1. L20K    4.15
2. E13S    3.11
3. I5V    4
4. F15M    3.67
5. E14M    2.99

Request: // query protein stability index value for entry K22F
Result: 1.94

Request: // query protein stability index value for entry E12Q
Result: 3.27

Request: // query protein stability index value for entry S17F
Result: 2.98

Request: // query protein stability index value for entry E13C
Result: 3.07

Request: // query protein stability index value for entry S2A
Result: 4.01

Request: // query protein stability index value for entry I5F
Result: 3.96

Request: // query protein stability index value for entry I16C
Result: 4.11

Request: // query protein stability index value for entry Q6C
Result: 2.81

Request: // query protein stability index value for entry S17Q
Result: 3.77
